B1: PBXIP1 (parent)
chain: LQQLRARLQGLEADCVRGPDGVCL

Variants of: B1
Assay: protein stability index of a GFP-peptide fusion (GPS, HEK-293T) (PSI 1-6); higher = more stable;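 note: lentivirally expressed fusions sorted by FACS into six bins by GFP to DsRed ratio, PSI derived from sequencing read proportions per bin multiplied by bin number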
Settings: c terminus: a fixed tail appended
Assign a class from recorded protein stability index; defined classes: small value (below 2), mid value (2 to below 3), large value (3 or more)

Sequence content: LKQLRARLQGLEADCVRGPDGVCL [Q2K]
Class assignment: small value
--
Sequence content: LQQLRARLQGLEADCVRPPDGVCL [G18P]
Class assignment: small value
--
Sequence content: LQQLRARLPGLEADCVRGPDGVCL [Q9P]
Class assignment: mid value
--
Sequence content: LQQLRARLQGLEADCVRGPDGRCL [V22R]
Class assignment: large value
--
Sequence content: LQQLRALLQGLEADCVRGPDGVCL [R7L]
Class assignment: large value
--
Sequence content: LQQLRARLQGHEADCVRGPDGVCL [L11H]
Class assignment: mid value
--
Sequence content: LQQLRARLQGLEADCVRGPDGVCS [L24S]
Class assignment: mid value
--
Sequence content: LQQLRAQLQGLEADCVRGPDGVCL [R7Q]
Class assignment: large value
--
Sequence content: LQQLRARDQGLEADCVRGPDGVCL [L8D]
Class assignment: large value
--
Sequence content: LQQLRARKQGLEADCVRGPDGVCL [L8K]
Class assignment: large value
--
Sequence content: LQQLRARLQILEADCVRGPDGVCL [G10I]
Class assignment: small value
--
Sequence content: LQQLIARLQGLEADCVRGPDGVCL [R5I]
Class assignment: mid value
--
Sequence content: LQQLRARLQGLEADCVRGPIGVCL [D20I]
Class assignment: small value
--
Sequence content: LQQLRARLQGLEADCVRGIDGVCL [P19I]
Class assignment: mid value
--
Sequence content: LQQLRARLQGLEADCVRGPDGYCL [V22Y]
Class assignment: small value
--
Sequence content: EQQLRARLQGLEADCVRGPDGVCL [L1E]
Class assignment: large value
--
Sequence content: LQQLRARLQGLEADLVRGPDGVCL [C15L]
Class assignment: mid value
--
Sequence content: LQQLRARQQGLEADCVRGPDGVCL [L8Q]
Class assignment: large value
--
Sequence content: LQQLRARLSGLEADCVRGPDGVCL [Q9S]
Class assignment: small value
--
Sequence content: LQQVRARLQGLEADCVRGPDGVCL [L4V]
Class assignment: small value
--
Sequence content: LQQLRARLQGLEAGCVRGPDGVCL [D14G]
Class assignment: small value
--
Sequence content: LQQLRARLQGLEADHVRGPDGVCL [C15H]
Class assignment: small value
--
Sequence content: LMQLRARLQGLEADCVRGPDGVCL [Q2M]
Class assignment: small value
--
Sequence content: LQQLRARLQGLEADTVRGPDGVCL [C15T]
Class assignment: mid value
--
Sequence content: LQQLRARLQALEADCVRGPDGVCL [G10A]
Class assignment: small value
--
Sequence content: LQQLRARLQGLEADCNRGPDGVCL [V16N]
Class assignment: mid value
--
Sequence content: LQQLFARLQGLEADCVRGPDGVCL [R5F]
Class assignment: mid value
--
Sequence content: PQQLRARLQGLEADCVRGPDGVCL [L1P]
Class assignment: large value
--
Sequence content: LQQLRARLQGLEADCVRGPDGVNL [C23N]
Class assignment: small value
--
Sequence content: LQQLRARLQGLEADCVRFPDGVCL [G18F]
Class assignment: small value
--
Sequence content: LQQLRTRLQGLEADCVRGPDGVCL [A6T]
Class assignment: large value
--
Sequence content: LQQLRIRLQGLEADCVRGPDGVCL [A6I]
Class assignment: small value
--
Sequence content: LQQLRSRLQGLEADCVRGPDGVCL [A6S]
Class assignment: large value
--
Sequence content: FQQLRARLQGLEADCVRGPDGVCL [L1F]
Class assignment: small value
--
Sequence content: LQQLRARLQGLEADCDRGPDGVCL [V16D]
Class assignment: mid value
--
Sequence content: LQQLRARLQGLEADCVRGHDGVCL [P19H]
Class assignment: mid value
--
Sequence content: LQQLRARLQGAEADCVRGPDGVCL [L11A]
Class assignment: mid value
--
Sequence content: LQQLRARLQGLEADCVEGPDGVCL [R17E]
Class assignment: small value
--
Sequence content: LQQLRARLQGLEADCVRGDDGVCL [P19D]
Class assignment: mid value
--
Sequence content: LQQLRARLQGLEADCVRGNDGVCL [P19N]
Class assignment: small value
--
Sequence content: LQQLRQRLQGLEADCVRGPDGVCL [A6Q]
Class assignment: small value
--
Sequence content: LQQLRASLQGLEADCVRGPDGVCL [R7S]
Class assignment: mid value
--
Sequence content: LQQIRARLQGLEADCVRGPDGVCL [L4I]
Class assignment: small value
--
Sequence content: LQQWRARLQGLEADCVRGPDGVCL [L4W]
Class assignment: mid value
--
Sequence content: LQNLRARLQGLEADCVRGPDGVCL [Q3N]
Class assignment: mid value
--
Sequence content: LQQLRARLQGKEADCVRGPDGVCL [L11K]
Class assignment: large value
--
Sequence content: LLQLRARLQGLEADCVRGPDGVCL [Q2L]
Class assignment: small value
--
Sequence content: LQQLRARLGGLEADCVRGPDGVCL [Q9G]
Class assignment: mid value
